Please respond with reported melting point for every item in the list.

[
  {
    "compound": "C1=C(c2ccccc2)CCN(CC2CCC=C(c3ccccc3)C2)C1 (stereo unspecified)",
    "melting point": "94 to 100 °C"
  },
  {
    "compound": "COc1ccc(-c2cnc(N3CCc4c([nH]c5ccccc45)C3C3Cc4ccccc4O3)nc2)cc1 (stereo unspecified)",
    "melting point": "242 to 243 °C"
  }
]

Kindly give each listed record's melting point.
1. COc1ccc2nc(-c3csc4ccccc34)[nH]c(=O)c2c1
2. CC(=NOc1ccc(C=O)cc1)c1ccc(C)cc1
3. C=CCc1ccccc1OC[C@@H](O)CNCCc1ccc(NC2CCN(C(=O)NCCCCCCCC)CC2)cc1

289 to 290 °C
96 to 98 °C
73 to 80 °C

Please report the recorded melting point for O=C(O)COc1cc2c(c(Cl)c1Cl)C(=O)C(c1ccccc1)(C1CCCC1)C2 (stereo unspecified) .
184 to 186 °C

* * *

Please respond with reported melting point for every item in the list.

Recorded results for 7 compounds are shown here.
[
  {
    "compound": "Cc1ccc(C)c2c1CCC2=NNC(N)=Nc1c(Cl)cccc1Cl",
    "value-measured": "> 275 °C"
  },
  {
    "compound": "CN(CCO)Cc1cc(C(=O)c2ccccc2)cc(C2CCCCC2)c1O",
    "value-measured": "92 to 93 °C"
  },
  {
    "compound": "CCCc1cn(CC(=O)O)nc1OCCCc1cn(-c2ccc(C(F)(F)F)cn2)nc1OCC",
    "value-measured": "134 to 135 °C"
  },
  {
    "compound": "CC=Cc1cccc2c(=O)c(C)c(-c3ccc(OC)cc3)oc12",
    "value-measured": "169 to 171 °C"
  },
  {
    "compound": "CCCCc1nn(C(CC)c2ccccc2)c(=O)n1Cc1ccc(-c2ccccc2-c2nnn[nH]2)cc1 (stereo not drawn)",
    "value-measured": "72 to 75 °C"
  },
  {
    "compound": "Cc1nc(-n2ccc(OCc3ccc(C(F)(F)F)o3)cc2=O)sc1C(=O)O",
    "value-measured": "261 to 263 °C"
  },
  {
    "compound": "COc1ccc2cnc(Nc3ccccc3)nc2c1C1CCCC1",
    "value-measured": "187 to 188 °C"
  }
]

Please find the next compound below.
Please report the recorded melting point for CN(CCCOc1ccc(OC(F)(F)F)cc1)C1CCN(c2ccc(OC[C@@]3(C)Cn4cc([N+](=O)[O-])nc4O3)cc2)CC1 .
167 to 170 °C

* * *

Please respond with reported melting point for every item in the list.

[
  {
    "molecule": "CN(C)Cc1nc(N)nc(N)c1-c1ccc(Cl)cc1Cl",
    "melting point": "170 to 172 °C"
  },
  {
    "molecule": "O=Cc1cccc2ncc(C3CCCCC3)cc12",
    "melting point": "94 to 95 °C"
  },
  {
    "molecule": "CS(=O)(=O)c1ccc(-c2cnn(Cc3ccc4ccccc4n3)c(=O)c2-c2ccc(F)cc2)cc1",
    "melting point": "97 to 100 °C"
  }
]

Kindly give each listed record's melting point.
1. COC(=O)C1C=CCN2C(=O)C(CCSC(C)=O)(Cc3ccccc3)C(=O)N12 (stereo not given)
2. CSc1ccc(C[C@@H](NC(=O)OCc2ccccc2)[C@H](O)C(=O)O)cc1
3. CC(C)(C)OC(=O)Nc1cccc(C(=O)OCc2ccccc2)c1
4. Oc1ccc(Nc2nnc(Cc3ccncc3)c3ccccc23)cc1
5. O=C1CSC(=S)N1C(=O)Nc1ccc2nc(S)sc2c1
6. CC(Cl)C(=O)c1ccc2c(c1)CC(=O)N2 (stereo not given)
7. COc1cccc(C2(Cl)C(=O)Nc3ccc(Cl)cc32)c1 (stereo not given)

1: 161 to 162 °C; 2: 174 to 177 °C; 3: 151 to 153 °C; 4: 239 to 241 °C; 5: 212 to 217 °C; 6: 157 to 158 °C; 7: 170 °C

Kindly give each listed record's melting point.
1. CCCCCCCCCC=COC1OC(CO)C(O)C(O)C1NC(C)=O (stereo not given)
2. CCN1CCC(O)(c2cccc(OC)c2)CC1

1: 152 to 154 °C; 2: 86.7 to 91.1 °C

Kindly give each listed record's melting point.
1. CC(=O)ONC(=N)c1ccc(-c2ccc(-c3ccc(C(=N)NOC(C)=O)o3)o2)cc1
2. COc1cc(F)cc(-c2ccc3c(c2)C(C)(C)OC(=S)N3)c1
3. O=C(O)C(=O)c1ccccc1Nc1c(Cl)cccc1Cl
4. CC(C)(C)C(=O)C=Cc1ccc(C2OCCO2)cc1
5. Cc1[nH]c(=O)c2ccccc2c1CC(=O)O
6. COc1c(Cl)ccc(-c2cc(N)c(Cl)c(C(=O)N(C)OC)n2)c1F
7. CCNn1cc(C(=O)O)c(=O)c2ccc(C)nc21
8. Oc1ccc2c(c1)C1CNCC(C2)C1 (stereo not given)

1. 212 to 213 °C
2. 170 to 171 °C
3. 159 to 160 °C
4. 79 to 81 °C
5. 280 to 295 °C
6. 159 to 162 °C
7. 166 to 169 °C
8. 215 to 217 °C

* * *

property-measured: melting point

[
  {
    "compound": "COc1ccc(Sc2ccc3c(c2)OCC(=O)N3)cc1OC",
    "melting point": "97 to 98 °C"
  },
  {
    "compound": "Nc1c2c(nc3ccccc13)CCc1cn(Cc3ccccc3)nc1-2",
    "melting point": "206 to 207 °C"
  },
  {
    "compound": "O=C1CCc2c(Cl)cc(Cl)c(I)c21",
    "melting point": "170 to 172 °C"
  },
  {
    "compound": "C=CCOC(=O)NC12CC3CC(CC(C3)C1)C2",
    "melting point": "56 to 58 °C"
  },
  {
    "compound": "CN1C2C=C(c3cc4ccccc4s3)CC1CCC2 (stereo unspecified)",
    "melting point": "91.3 to 93.5 °C"
  }
]

Kindly give each listed record's melting point.
1. CCOC(=O)Cc1c(CC)nn(-c2ccccc2)c1CC
2. O=[N+]([O-])c1ccc(Cl)c(Cl)c1Br
3. CC(C)c1cc(-c2ccc(F)cc2)c(CO)c(C(C)C)n1
4. c1cn(Cc2ccc3[nH]c(C4CC4)nc3c2)cn1
5. COc1ccc(C2(C)CCc3cc(OC)ccc3C2CCCCCCO)cc1 (stereo unspecified)
6. CC(C)C[C@H](NC(=O)OC(C)(C)C)C(=O)N1CCN(C(c2ccc(F)cc2)c2ccc(F)cc2)CC1

129 to 130 °C
73 °C
88 to 90 °C
184 °C
76 to 83 °C
59 to 66 °C

* * *

Please respond with reported melting point for every item in the list.

[
  {
    "compound": "Nc1ccc(Oc2ccc(O)c(C(=O)O)c2)cc1",
    "melting point": "223 to 224 °C"
  },
  {
    "compound": "CC(=O)c1ccc(OCCCOc2ccc(C(=O)C(=O)O)cc2)cc1O",
    "melting point": "133 to 135 °C"
  },
  {
    "compound": "CC(=O)Nc1ccn([C@@H]2[C@H](O)[C@H](O)CC[C@H]2OC(C)=O)c(=O)n1 (racemic)",
    "melting point": "249 °C"
  },
  {
    "compound": "CC12CC(Cl)C(O)CC1CCC1C2CCC2(C)C(O)C(N3CCCCC3)CC12 (centres undefined)",
    "melting point": "232 to 234 °C"
  },
  {
    "compound": "N#CCc1cc(Cl)c(C(=O)c2ccc(Cl)cc2)[nH]1",
    "melting point": "194 to 197 °C"
  }
]

Kindly give each listed record's melting point.
1. COc1ccc(C(=O)Sc2ccc(C(=O)O)cc2)cc1C12CC3CC(CC(C3)C1)C2
2. CCc1nc2ccc(OC(F)(F)F)cc2[nH]1
3. Cc1nnc(-c2ccc3occ(-c4ccc(OCS(C)(=O)=O)cc4)c3c2)o1
4. [N-]=[N+]=NC1CCc2ccccc2N(c2ccccc2)C1=O (centres undefined)

["264 °C", "135 to 137 °C", "198 to 199 °C", "141 to 143 °C"]

* * *

Please respond with reported melting point for every item in the list.

Recorded results for 2 compounds are shown here.
[
  {
    "smiles-entry": "CCc1nc(/C=C/c2cn(-c3ccccc3)nc2OCc2ccc(OCc3nc(-c4cccc(-c5noc(=O)[nH]5)c4)oc3C)c(OC)c2)cs1",
    "melting point": "139 to 140 °C"
  },
  {
    "smiles-entry": "CC(=O)c1nc2cccc(OC(F)(F)F)c2cc1OCc1ccccc1",
    "melting point": "90 to 92 °C"
  }
]

Please find the next compound below.
Please report the recorded melting point for CCCCCCCCCCCCCCC(O)(CCCCC(=O)O)CCCCC(=O)O .
79 to 80 °C
